Test: Fish toxicity, tilapia
Assay type: in vivo
Conditions: water; Tilapia (Oreochromis niloticus), 48 hour test
measurement_type: LC50 at 48 h

Solved cases below.
FC(F)(F)c1ccc(C(C=CCc2cccc(Oc3ccccc3)c2)C2CC2)cc1 (stereo not drawn) [Compound 3]    5 to 7.5 µg/mL
Fc1ccc(CC=CC(c2ccc(Cl)cc2)C2CC2)cc1Oc1ccccc1 (stereo not drawn) [Compound 2]    7.5 to 10 µg/mL
CC1(C)C(C=C(Cl)Cl)C1C(=O)OC(C#N)c1cccc(Oc2ccccc2)c1 (stereo not drawn) [cypermethrin, reference compound]    0.02 µg/mL
Fc1ccc(CC=CC(c2ccc(OC(F)(F)F)cc2)C2CC2)cc1Oc1ccccc1 (stereo not drawn) [Compound 6]    9 µg/mL
FC(F)(F)Oc1ccc(C(C=CCc2cccc(Oc3ccccc3)c2)C2CC2)cc1 (stereo not drawn) [Compound 5]    1 to 3 µg/mL

Please fill in: LC50 at 48 h reported for Clc1ccc(C(C=CCc2cccc(Oc3ccccc3)c2)C2CC2)cc1 (stereo not drawn) [Compound 1] = 3 to 5 µg/mL
